target.of.assay: T1, Carbon-terminal polyhistidine-labeled recombinant cynomolgus monkey CD73 enzyme (cynomolgus monkey, UniProt A0A2K5V5U7 1-547)
T1 chain: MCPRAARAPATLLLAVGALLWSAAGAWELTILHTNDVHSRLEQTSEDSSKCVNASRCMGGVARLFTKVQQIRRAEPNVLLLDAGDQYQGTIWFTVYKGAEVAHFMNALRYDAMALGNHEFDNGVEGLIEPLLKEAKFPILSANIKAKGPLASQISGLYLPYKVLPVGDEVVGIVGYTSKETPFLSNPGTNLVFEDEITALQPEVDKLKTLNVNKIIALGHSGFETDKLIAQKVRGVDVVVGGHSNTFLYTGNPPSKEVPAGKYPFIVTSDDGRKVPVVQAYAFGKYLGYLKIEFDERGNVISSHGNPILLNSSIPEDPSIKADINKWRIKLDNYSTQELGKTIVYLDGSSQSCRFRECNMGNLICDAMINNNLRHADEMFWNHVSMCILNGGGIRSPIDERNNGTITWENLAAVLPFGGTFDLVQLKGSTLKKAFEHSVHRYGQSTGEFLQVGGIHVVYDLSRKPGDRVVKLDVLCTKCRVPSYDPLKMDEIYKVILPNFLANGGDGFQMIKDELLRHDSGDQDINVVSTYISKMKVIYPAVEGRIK
assay.method.text: enzyme inhibition; right table
quantity.measured: pIC50
Formally, pIC50 is defined as -log10 of the concentration c, with c in mol/L.

Kindly note the recorded pIC50 for mAb002c (antibody, V domains shown) VH: QVQLQQPGAELVKPGASVRLSCKASGYTLTSYWMHWVKKRPGQGLEWIGEINPSNGRSNYNEKFKSKATLTVDRSSSTVYMQLGSLTSEDSAVYYCARRGVSGNYFDYWGQGTTLTVSS VL: DIKMTQSPSSMYASLGERVTMTCKASQDINTYLSWFQQKPGKSPKTLIYRSNILVDGVPSRFSGSRSGQDYYLTITSLEYEDMGIYYCLQYDEFPYTFGGGTKLELK , which is 10.41

Data point: Hu001c-14 (antibody, V domains shown) VH: QVQLVQSGAEVKKPGASVKVSCKTSGYTFTNYYIYWVRQAPGQRLEWMGWIYPGNLNIKYNEKFKGRVTITADTSASTAYMELSSLRSEDTAVYYCARDDNYAWFAYWGQGTLVTVSS VL: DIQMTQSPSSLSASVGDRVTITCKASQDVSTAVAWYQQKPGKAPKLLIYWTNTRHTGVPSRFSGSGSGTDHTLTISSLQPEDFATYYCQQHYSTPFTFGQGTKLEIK ; pIC50 = 10.00

response.value for Hu002c-10 (antibody, V domains shown) VH: QVQLVQSGAEVKKPGASVKVSCKASGYTLTSYWMHWVRQAPGQGLEWIGEINPSQGRSNYNEKFKSKVTLTVDRSTSTVYMELSSLRSEDTAVYYCARRGVSGNYFDYWGQGTLVTVSS VL: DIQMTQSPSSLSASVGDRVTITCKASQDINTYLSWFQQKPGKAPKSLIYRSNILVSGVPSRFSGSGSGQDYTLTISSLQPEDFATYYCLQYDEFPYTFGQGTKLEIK (field: pIC50) = 10.23

Hey, just so you know, these numbers are from patent US20210024646A1.
